IC50 values by entry
# testedSystem: Myt1 kinase (recombinant PMYT-1) (Homo sapiens, UniProt Q99640)
# Construct: full length PMYT-1 was expressed by baculovirus in insect cells; purchased Invitrogen A30984; host or cells: insect cells (baculovirus)
# assayProtocol: Myt1 kinase binding assay (LanthaScreen Eu Kinase Binding Assay)
# conditionDetails: Myt1 kinase Binding IC50, 3 nM tracer 178, 2.5 nM PMYT-1, 1 nM Eu-labeled antibody

- smilesStructure: "C=CCn1c(=O)c2cnc(Nc3cnn(CC(C)(C)F)c3)nc2n1-c1cccc(N(C)C2CCN(C)CC2)n1"
  IC50: "> 500 nM"
- smilesStructure: "C=CCn1c(=O)c2cnc(Nc3cnn(C)c3)nc2n1-c1cccc(N(C)C2CCN(C)CC2)n1"
  IC50: "> 500 nM"
- smilesStructure: "C=CCn1c(=O)c2cnc(Nc3ccc(Cl)cc3)nc2n1-c1cccc(N(C)C2CCN(C)CC2)n1"
  IC50: "> 500 nM"
- smilesStructure: "C=CCn1c(=O)c2cnc(Nc3cnn(CCC(F)(F)F)c3)nc2n1-c1cccc(N(C)C2CCN(C)CC2)n1"
  IC50: "100 to 500 nM"

Shift focus to the following entry.
Ask: Consider the compound C=CCn1c(=O)c2cnc(Nc3cnn(C(C)C)c3)nc2n1-c1cccc(N(C)C2CCNCC2)n1 and give its measured IC50.
Reply: > 500 nM

====

pIC50 values by entry
# testedSystem: Myt1 kinase (recombinant PMYT-1) (Homo sapiens, UniProt Q99640)
# Construct: full length PMYT-1 was expressed by baculovirus in insect cells; purchased Invitrogen A30984; host or cells: insect cells (baculovirus)
# assayProtocol: Myt1 kinase binding assay (LanthaScreen Eu Kinase Binding Assay)
# conditionDetails: 3 nM tracer 178, 2.5 nM PMYT-1, 1 nM Eu-labeled antibody; read-out: Myt1 kinase Binding IC50
pIC50: −log10 of the molar value.

Here's what some known entries look like.
- compound: "C=CCn1c(=O)c2cnc(Nc3ccc4c(cnn4C)c3)nc2n1-c1cccc(OC2CCN(CCC)CC2)n1"
  measured: "7.00 to 7.70"
- compound: "C=CCn1c(=O)c2cnc(Nc3ccc(C#N)cc3)nc2n1-c1cccc(OC2CCNCC2)n1"
  measured: "7.00 to 7.70"
- compound: "C=CCn1c(=O)c2cnc(Nc3ccc(Cl)cc3)nc2n1-c1cccc(N[C@H]2CCCN(C)C2)n1"
  measured: "6.30 to 7.00"

Ask: Any idea what pIC50 came out for C=CCn1c(=O)c2cnc(Nc3ccc4c(cnn4C)c3)nc2n1-c1cccc(OC2CCN(CC)CC2)n1 on Myt1 kinase (recombinant PMYT-1) (Homo sapiens, UniProt Q99640)?
Reply: 7.00 to 7.70

====

IC50 values by entry
# testedSystem: Myt1 kinase (recombinant PMYT-1) (Homo sapiens)
# Construct: full length PMYT-1 was expressed by baculovirus in insect cells; purchased Invitrogen A30984; host or cells: insect cells (baculovirus)
# assayProtocol: Myt1 kinase binding assay (LanthaScreen Eu Kinase Binding Assay)
# conditionDetails: 3 nM tracer 178, 2.5 nM PMYT-1, 1 nM Eu-labeled antibody; read-out: Myt1 kinase Binding IC50

Here's what some known entries look like.
- compound: "CCn1c(=O)c2cnc(Nc3cnn(C)c3)nc2n1-c1cccc(OC2CCN(C)CC2)n1 [Compound 341]"
  measured: "20 to 100 nM"
- compound: "CCn1c(=O)c2cnc(Nc3ccc4c(cnn4C)c3)nc2n1-c1cccc(NC2CCN(C)CC2)n1"
  measured: "> 500 nM"

Ask: Consider the compound C=CCn1c(=O)c2cnc(Nc3ccnc(C)c3)nc2n1-c1cccc(OC2CCNCC2)n1 and give its measured IC50.
Reply: 20 to 100 nM

Ask: Consider the compound C=CCn1c(=O)c2cnc(Nc3cccc(-n4cccn4)c3)nc2n1-c1cccc(OC2CCNCC2)n1 and give its measured IC50.
Reply: 20 to 100 nM

====

EC50 values by entry
# testedSystem: Wee1A kinase (CDK1 Tyr15 phosphorylation in ACHN renal cell carcinoma cells) (Homo sapiens)
# Construct: pCDK1 Tyr15 immunofluorescence read-out
# assayProtocol: High-content imaging of pCdk1 Y15, Wee1A kinase target engagement in ACHN cells
# Format: cell-based
# conditionDetails: 4 h treatment, nuclear positivity for pCdk1 Y15 vs DMSO control, read-out: CDK1 Tyr15 Phosphorylation EC50

- compound: "C=CCn1c(=O)c2cnc(Nc3cncc(F)c3)nc2n1-c1cccc(OC2CCN(C)CC2)n1 [Compound 327]"
  measured: "100 to 500 nM"

Ask: Consider the compound C=CCn1c(=O)c2cnc(Nc3ccc(N4CCS(=O)(=O)CC4)cc3)nc2n1-c1cccc(OC2CCN(C)CC2)n1 [Compound 369] and give its measured EC50.
Reply: < 100 nM

Ask: Consider the compound C=CCn1c(=O)c2cnc(Nc3ccc4nccnc4c3)nc2n1-c1cccc(OC2CCNCC2)n1 [Compound 239] and give its measured EC50.
Reply: 100 to 500 nM

====

pIC50 values by entry
# testedSystem: Myt1 kinase (recombinant PMYT-1) (Homo sapiens, UniProt Q99640)
# Construct: full length PMYT-1 was expressed by baculovirus in insect cells; purchased Invitrogen A30984; host or cells: insect cells (baculovirus)
# Sequence (Q99640 1-499): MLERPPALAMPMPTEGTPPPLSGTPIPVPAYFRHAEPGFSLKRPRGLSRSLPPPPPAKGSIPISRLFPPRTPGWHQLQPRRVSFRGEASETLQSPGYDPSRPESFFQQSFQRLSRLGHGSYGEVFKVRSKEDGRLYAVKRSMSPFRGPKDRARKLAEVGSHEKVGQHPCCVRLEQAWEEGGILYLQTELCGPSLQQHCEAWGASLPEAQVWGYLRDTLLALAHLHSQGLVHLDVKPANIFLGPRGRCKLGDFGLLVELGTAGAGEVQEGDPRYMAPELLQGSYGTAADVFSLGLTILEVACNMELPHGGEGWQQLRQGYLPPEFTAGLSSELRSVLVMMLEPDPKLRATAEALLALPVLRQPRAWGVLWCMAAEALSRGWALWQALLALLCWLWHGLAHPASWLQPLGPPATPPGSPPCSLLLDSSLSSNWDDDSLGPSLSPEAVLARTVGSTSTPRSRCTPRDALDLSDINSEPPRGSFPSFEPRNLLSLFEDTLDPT
# assayProtocol: Myt1 kinase binding assay (LanthaScreen Eu Kinase Binding Assay)
# conditionDetails: 3 nM tracer 178, 2.5 nM PMYT-1, 1 nM Eu-labeled antibody; read-out: Myt1 kinase Binding IC50
pIC50: −log10 of the molar value.

Here's what some known entries look like.
- smilesStructure: "Cc1cc(Nc2ncc3c(=O)n(C)n(-c4cccc(OC5CCN(C)CC5)n4)c3n2)ccc1F"
  measured: "7.00 to 7.70"
- smilesStructure: "C=CCn1c(=O)c2cnc(Nc3ccc4nn(CC)cc4c3)nc2n1-c1cccc(OC2CCN(C)CC2)n1"
  measured: "> 7.70"
- smilesStructure: "C=CCn1c(=O)c2cnc(Nc3ccc4[nH]ncc4c3)nc2n1-c1cccc(OC2CCN(C)CC2)n1"
  measured: "7.00 to 7.70"
- smilesStructure: "C=CCn1c(=O)c2cnc(Nc3ccc4c(cnn4CCC)c3)nc2n1-c1cccc(OC2CCN(C)CC2)n1"
  measured: "> 7.70"
- smilesStructure: "C=CCn1c(=O)c2cnc(Nc3ccc4c(c3)OCO4)nc2n1-c1cccc(OC2CCN(C)CC2)n1"
  measured: "7.00 to 7.70"

Ask: Consider the compound C=CCn1c(=O)c2cnc(Nc3ccc4nccnc4c3)nc2n1-c1cccc(OC2CCNCC2)n1 and give its measured pIC50.
Reply: > 7.70

Ask: Consider the compound C=CCn1c(=O)c2cnc(Nc3ccc4c(ccn4C)c3)nc2n1-c1cccc(OC2CCNCC2)n1 and give its measured pIC50.
Reply: 7.00 to 7.70

====

# testedSystem: Wee1A kinase (CDK1 Tyr15 phosphorylation in ACHN renal cell carcinoma cells) (Homo sapiens, UniProt P30291)
# Construct: pCDK1 Tyr15 immunofluorescence read-out
# Sequence (P30291 whole entry): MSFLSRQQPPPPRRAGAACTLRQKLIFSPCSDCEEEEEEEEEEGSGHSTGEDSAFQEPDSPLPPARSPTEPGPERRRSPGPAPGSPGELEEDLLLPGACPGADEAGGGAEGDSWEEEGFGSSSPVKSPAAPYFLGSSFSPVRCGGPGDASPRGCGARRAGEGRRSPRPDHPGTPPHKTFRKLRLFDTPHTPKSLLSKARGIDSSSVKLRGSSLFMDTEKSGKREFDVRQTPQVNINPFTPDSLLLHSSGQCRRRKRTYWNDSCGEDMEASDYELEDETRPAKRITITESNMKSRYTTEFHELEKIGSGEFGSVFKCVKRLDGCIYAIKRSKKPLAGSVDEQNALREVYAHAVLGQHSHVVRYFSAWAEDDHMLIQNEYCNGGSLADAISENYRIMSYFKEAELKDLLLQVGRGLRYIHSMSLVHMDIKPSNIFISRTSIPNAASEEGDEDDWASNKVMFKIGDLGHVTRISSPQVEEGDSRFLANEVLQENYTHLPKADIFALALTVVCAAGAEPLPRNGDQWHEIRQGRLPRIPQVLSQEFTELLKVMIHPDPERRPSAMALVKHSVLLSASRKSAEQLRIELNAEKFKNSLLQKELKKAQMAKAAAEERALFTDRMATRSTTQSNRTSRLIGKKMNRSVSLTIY
# assayProtocol: High-content imaging of pCdk1 Y15, Wee1A kinase target engagement in ACHN cells
# Assay type: cell-based
# conditionDetails: 4 h treatment, nuclear positivity for pCdk1 Y15 vs DMSO control, read-out: CDK1 Tyr15 Phosphorylation EC50
EC50 values by entry

Ask: Consider the molecule C=CCn1c(=O)c2cnc(Nc3ccc(F)cc3)nc2n1-c1cccc(OC2CCCN(C)CC2)n1 (single isomer, unassigned) [Compound 372] and give its measured EC50.
Reply: < 100 nM

Ask: Consider the molecule [2H]C([2H])([2H])c1cccc(Nc2ncc3c(=O)n(CC=C)n(-c4cccc(OC5CCNCC5)n4)c3n2)c1 and give its measured EC50.
Reply: < 100 nM

Ask: Consider the molecule C=CCn1c(=O)c2cnc(Nc3ccc4ccoc4c3)nc2n1-c1cccc(OC2CCN(C)CC2)n1 [Compound 308] and give its measured EC50.
Reply: < 100 nM

Ask: Consider the molecule C=CCn1c(=O)c2cnc(Nc3ccc4nc(C)oc4c3)nc2n1-c1cccc(OC2CCN(C)CC2)n1 and give its measured EC50.
Reply: < 100 nM

Ask: Consider the molecule C=CCn1c(=O)c2cnc(Nc3ccc4c(cnn4C)c3)nc2n1-c1cccc(OC2CCN(CC)CC2)n1 and give its measured EC50.
Reply: < 100 nM

Ask: Consider the molecule C=CCn1c(=O)c2cnc(Nc3cc(C)cc(F)c3)nc2n1-c1cccc(OC2CCN(C)CC2)n1 and give its measured EC50.
Reply: < 100 nM

Ask: Consider the molecule C=CCn1c(=O)c2cnc(Nc3ccc4c(cnn4C)c3)nc2n1-c1cccc(N[C@@H]2CCN(C)C2)n1 and give its measured EC50.
Reply: < 100 nM

Ask: Consider the molecule CN1CCC(Oc2cccc(-n3c4nc(Nc5ccc(Cl)cc5)ncc4c(=O)n3C)n2)CC1 and give its measured EC50.
Reply: 100 to 500 nM

Ask: Consider the molecule C=CCn1c(=O)c2cnc(Nc3ccc4c(cnn4CCCF)c3)nc2n1-c1cccc(OC2CCNCC2)n1 and give its measured EC50.
Reply: < 100 nM

Ask: Consider the molecule C=CCn1c(=O)c2cnc(Nc3ccc(OC)nc3)nc2n1-c1cccc(OC2CCN(C)CC2)n1 and give its measured EC50.
Reply: < 100 nM

Ask: Consider the molecule CCn1c(=O)c2cnc(Nc3cnn(C)c3)nc2n1-c1cccc(OC2CCN(C)CC2)n1 [Compound 132] and give its measured EC50.
Reply: 100 to 500 nM

Ask: Consider the molecule C=CCn1c(=O)c2cnc(Nc3ccc(OCC(F)(F)F)c(C)c3)nc2n1-c1cccc(NC2CCN(C)CC2)n1 and give its measured EC50.
Reply: < 100 nM
